Reported inhibition at 250 µM values for a set of compounds
# TEST_SYSTEM: Succinat-Dehydrogenase (Rattus norvegicus, UniProt P21913+Q641Z9+Q6PCT8+Q920L2)
# Construct: Hemmung des Komplexes I bzw; II der mitochondrialen Atmungskette in Rattenhirn-Homogenaten; from tissue; host or cells: rat brain homogenate
# Sequence (Q920L2 35-656): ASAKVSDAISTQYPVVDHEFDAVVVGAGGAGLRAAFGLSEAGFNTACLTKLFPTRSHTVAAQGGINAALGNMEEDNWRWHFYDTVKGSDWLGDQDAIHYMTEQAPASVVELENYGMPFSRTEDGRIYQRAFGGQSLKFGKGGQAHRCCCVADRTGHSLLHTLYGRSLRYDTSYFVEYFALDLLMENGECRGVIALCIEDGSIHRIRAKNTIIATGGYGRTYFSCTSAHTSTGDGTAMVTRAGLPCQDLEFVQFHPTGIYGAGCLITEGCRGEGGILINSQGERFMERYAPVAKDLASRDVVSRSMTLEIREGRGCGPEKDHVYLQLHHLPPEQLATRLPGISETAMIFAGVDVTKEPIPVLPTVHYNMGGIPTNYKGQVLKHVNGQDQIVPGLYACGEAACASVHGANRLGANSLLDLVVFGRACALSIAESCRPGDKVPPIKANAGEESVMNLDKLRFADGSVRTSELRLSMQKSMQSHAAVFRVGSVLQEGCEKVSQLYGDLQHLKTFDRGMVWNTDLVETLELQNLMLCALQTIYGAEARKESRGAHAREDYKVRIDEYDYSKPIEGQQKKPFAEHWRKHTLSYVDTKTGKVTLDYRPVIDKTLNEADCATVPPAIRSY
# Sequence (P21913 31-282): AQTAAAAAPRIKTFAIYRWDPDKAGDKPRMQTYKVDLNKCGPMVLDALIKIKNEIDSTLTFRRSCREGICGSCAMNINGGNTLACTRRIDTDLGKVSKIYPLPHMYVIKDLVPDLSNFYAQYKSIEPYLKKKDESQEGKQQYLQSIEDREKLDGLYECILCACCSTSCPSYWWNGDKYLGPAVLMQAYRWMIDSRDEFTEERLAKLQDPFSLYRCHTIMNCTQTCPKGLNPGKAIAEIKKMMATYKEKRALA
# Sequence (Q641Z9 1-169): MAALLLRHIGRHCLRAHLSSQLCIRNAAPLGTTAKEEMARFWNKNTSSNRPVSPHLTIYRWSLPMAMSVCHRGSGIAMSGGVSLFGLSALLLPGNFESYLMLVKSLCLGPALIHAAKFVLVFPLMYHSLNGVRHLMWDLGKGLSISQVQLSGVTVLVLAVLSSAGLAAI
# Sequence (Q6PCT8 57-159): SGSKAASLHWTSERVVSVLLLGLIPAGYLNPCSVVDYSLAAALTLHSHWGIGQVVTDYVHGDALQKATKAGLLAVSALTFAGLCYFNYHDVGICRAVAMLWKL
# PROTOCOL_NOTES: Succinate dehydrogenase (complex II) activity
# Type: biochemical, Ratte
# EXPERIMENTAL_CONTEXT: bei 250 µmol; Rattenhirn-Homogenate; read-out: Komplex-II-Hemmung Inhibierungsrate (in %) bei gegebener Konzentration (in µmol)

[
  {
    "COMPOUND": "FC(F)(F)C1=NCCc2c1[nH]c1ccccc21 [DDH-TaFlu]",
    "TEST_SYSTEM": "Succinat-Dehydrogenase (Rattus norvegicus, UniProt P21913+Q641Z9+Q6PCT8+Q920L2)",
    "BOUND_SIGN": "=",
    "inhibition at 250 µM, %": 20
  },
  {
    "COMPOUND": "ClC(Cl)=C1NCCc2c1[nH]c1ccccc21 [Dichlormethylen-TaClo]",
    "TEST_SYSTEM": "Succinat-Dehydrogenase (Rattus norvegicus, UniProt P21913+Q641Z9+Q6PCT8+Q920L2)",
    "BOUND_SIGN": "=",
    "inhibition at 250 µM, %": 40
  },
  {
    "COMPOUND": "ClC(Cl)(Cl)C1c2[nH]c3ccccc3c2CCN1Cc1ccccc1 (racemic) [N-Bzl-TaClo]",
    "TEST_SYSTEM": "Succinat-Dehydrogenase (Rattus norvegicus, UniProt P21913+Q641Z9+Q6PCT8+Q920L2)",
    "BOUND_SIGN": "=",
    "inhibition at 250 µM, %": 55
  },
  {
    "COMPOUND": "CN1CCc2c([nH]c3ccccc23)C1C(Cl)(Cl)Cl (racemic) [N-Me-TaClo]",
    "TEST_SYSTEM": "Succinat-Dehydrogenase (Rattus norvegicus, UniProt P21913+Q641Z9+Q6PCT8+Q920L2)",
    "BOUND_SIGN": "≥",
    "inhibition at 250 µM, %": 100
  }
]

FYI, the data here is from patent EP0815110B1.
